tested on: ERK1 phosphorylation of its substrate RSK in HT29 cells; assay: pRSK MSD Assay in HT29 cells; assay type: cell-based; conditions: Homo sapiens, HT-29, read-out: ERK1 PRSK MSD HT29 EC50 (nM)
List of EC50 values.

In the examples that follow, each entry is paired with its recorded EC50.
C=CC(=O)Nc1cc(F)ccc1Nc1nc(N[C@H]2CC[C@@H](F)CC2)ncc1C(F)(F)F [Compound I-8] :: < 100 nM
C=CC(=O)Nc1cc(C)ccc1Nc1nc(Nc2cc(C(C)=O)ccc2C)ncc1C(F)(F)F [Compound I-84] :: 101 to 500 nM
C=CC(=O)Nc1cc(C)ccc1Nc1nc(Nc2cc(NC3CCC(C)(O)CC3)nc(OC)c2)ncc1C(F)(F)F (stereo not shown) [Compound I-327] :: < 100 nM

Continue with the next compound.
Short answer for C=CC(=O)Nc1cc(C)ccc1Nc1nc(Nc2cc(OC)nc(OC)c2)ncc1C(F)(F)F [Compound I-96] : EC50 was < 100 nM

====

List of GI50 values.
test system: HT-29 cells; assay: Measurement of inhibition of cancer cell proliferation (CellTiterGlo); assay type: cell-based; conditions: Homo sapiens, 72 hours

C=CC(=O)Nc1cc(C)ccc1Nc1nc(Nc2cc(N[C@H]3CC[C@@H](O)CC3)nc(OC)c2)ncc1C(F)(F)F [Compound I-326] :: < 100 nM

Short answer for C=CC(=O)Nc1cc(F)ccc1Nc1nc(N[C@H]2CC[C@@H](F)CC2)ncc1C(F)(F)F [Compound I-8] : GI50 was 501 to 999 nM

Short answer for C=CC(=O)Nc1cc(OC)ccc1Nc1nc(Nc2ccc(N3CCN(C(C)=O)CC3)cc2OC)ncc1Cl [Compound I-152] : GI50 was 501 to 999 nM

Short answer for C=CC(=O)Nc1ccccc1Nc1nc(Nc2ccc(N3CCN(C(C)=O)CC3)cc2OC)ncc1Cl [Compound I-149] : GI50 was 101 to 500 nM

Short answer for C=CC(=O)Nc1ccccc1Nc1nc(Nc2cc(N[C@H]3CC[C@@H](O)CC3)nc(OC)c2)ncc1C(F)(F)F [Compound I-292] : GI50 was < 100 nM

Short answer for C=CC(=O)Nc1ccccc1Nc1nc(Nc2ccc(N3CCN(C(C)=O)CC3)cc2OC)ncc1C(F)(F)F [Compound I-66] : GI50 was 101 to 500 nM

Short answer for C=CC(=O)Nc1cc(C)ccc1Nc1nc(Nc2nc(OC)ncc2C(F)(F)F)ncc1C(F)(F)F [Compound I-355] : GI50 was 101 to 500 nM

Short answer for C=CC(=O)Nc1cc(C)ccc1Nc1nc(Nc2cc(NC3CCC(C)(O)CC3)nc(OC)c2)ncc1C(F)(F)F (stereo not shown) [Compound I-327] : GI50 was < 100 nM

Short answer for C=CC(=O)N(C)c1ccccc1Nc1nc(N[C@H]2CC[C@H](O)CC2)ncc1Cl [Compound I-104] : GI50 was 501 to 999 nM

Short answer for C=CC(=O)Nc1ccccc1Nc1nc(N[C@H]2CC[C@H](OC)CC2)ncc1Cl [Compound I-100] : GI50 was > 1000 nM

====

Target: MEK1 activated ERK1 (Homo sapiens (Human), UniProt P27361)
Sequence (P27361 whole entry): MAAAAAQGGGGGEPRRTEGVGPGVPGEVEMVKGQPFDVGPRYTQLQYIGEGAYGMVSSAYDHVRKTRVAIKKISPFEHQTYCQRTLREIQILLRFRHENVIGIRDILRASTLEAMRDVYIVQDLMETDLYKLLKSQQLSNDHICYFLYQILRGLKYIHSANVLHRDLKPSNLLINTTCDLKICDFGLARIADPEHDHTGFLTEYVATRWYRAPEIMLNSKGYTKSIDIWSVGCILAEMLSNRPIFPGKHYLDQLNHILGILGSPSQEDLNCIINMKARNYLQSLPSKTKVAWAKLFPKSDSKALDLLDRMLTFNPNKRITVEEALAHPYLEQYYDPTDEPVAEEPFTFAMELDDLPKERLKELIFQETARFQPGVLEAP
Experiment: Omnia continuous-read kinase assay for potency against MEK1 activated ERK1
Assay type: biochemical
Details: MEK1 activated ERK1, WT, ATP at KM
From the text: Omnia Assay Protocol for Potency Assessment Against MEK1 Activated ERK1: The protocol below describes continuous-read kinase assays to measure potency of compounds against activated ERK1 enzyme. The mechanics of the assay platform are best described by the vendor (Invitrogen, Carlsbad, Calif.) on their website at the following URL: invitrogen.com/site/us/en/home.html. […]
pIC50: −log10 of the molar value.
List of pIC50 values.

C=CC(=O)N[C@H]1CCCC[C@H]1Nc1nc(Nc2cc(C(N)=O)ccc2C)ncc1Cl :: < 6.00
C=C(C)S(=O)(=O)Nc1cc(F)ccc1Nc1nc(N[C@H]2CCCN(C(=O)CO)C2)ncc1C(F)(F)F :: > 7.00
C=CC(=O)Nc1cc(C)ccc1Nc1nc(Nc2nc(OC)ncc2Cl)ncc1C(F)(F)F :: > 7.00
C=CC(=O)Nc1ccccc1Nc1nc(Nc2cc(OC)nc(N3CCS(=O)(=O)CC3)c2)ncc1C(F)(F)F :: > 7.00
C=CC(=O)Nc1cc(C)ccc1Nc1nc(N[C@H]2CCCN(C(C)=O)C2)ncc1C(F)(F)F :: > 7.00
C=CC(=O)Nc1ccccc1Nc1ccnc(Nc2ccc(N3CCN(C(C)=O)CC3)cc2OC)n1 :: < 6.00

MEK1 activated ERK1 (Homo sapiens (Human), UniProt P27361) data for "CC#CC(=O)N[C@@H]1CCCC[C@H]1Nc1nc(N[C@H]2CCCN(C(=O)CO)C2)ncc1C(F)(F)F" ; its pIC50: < 6.00

MEK1 activated ERK1 (Homo sapiens (Human), UniProt P27361) data for "C=CC(=O)Nc1cc(OC)ccc1Nc1nc(Nc2cc(OC)nc(N3CCN(CC)CC3)c2)ncc1C(F)(F)F" ; its pIC50: > 7.00

MEK1 activated ERK1 (Homo sapiens (Human), UniProt P27361) data for "C=CC(=O)Nc1ccccc1Oc1nc(Nc2ccc(N3CCN(C(C)=O)CC3)cc2OC)ncc1F" ; its pIC50: < 6.00

MEK1 activated ERK1 (Homo sapiens (Human), UniProt P27361) data for "C=CC(=O)Nc1ccccc1Nc1nc(NC2CCN(S(C)(=O)=O)CC2)ncc1C(F)(F)F" ; its pIC50: > 7.00

====

biological target: Erk1 (Homo sapiens (Human), UniProt P27361); assay: Measurement of Erk occupancy with biotinylated covalent probe I-299; format: cell-based; conditions: HT-29 cells
QUANTITY: EC50

C=CC(=O)Nc1ccccc1Nc1nc(Nc2cc(CO)c(F)cc2C)ncc1C(F)(F)F [Compound I-77] :: < 100 nM
C=CC(=O)Nc1cc(F)ccc1Nc1nc(Nc2cc(C(N)=O)ccc2C)ncc1Cl [Compound I-206] :: < 100 nM
C=CC(=O)Nc1ccccc1Nc1nc(Nc2cc(C(N)=O)c(F)cc2C)ncc1Cl [Compound I-214] :: < 100 nM
C=CC(=O)Nc1ccccc1Nc1nc(N[C@@H]2CCC[C@H](C(N)=O)C2)ncc1C(F)(F)F (racemic) [Compound I-2] :: < 100 nM
C=CC(=O)Nc1ccccc1Nc1nc(Nc2ccc(F)cc2C#N)ncc1Cl [Compound I-211] :: < 100 nM

Short answer for C=CC(=O)Nc1cc(F)ccc1Nc1nc(Nc2ccc(F)cc2C)ncc1Cl [Compound I-212] : EC50 was < 100 nM

Short answer for C=CC(=O)Nc1ccccc1Nc1nc(Nc2cc(C(N)=O)ccc2C)ncc1C(F)(F)F [Compound I-68] : EC50 was < 100 nM

====

tested on: HT-29 cells; test: Measurement of inhibition of cancer cell proliferation (CellTiterGlo); type: cell-based; settings: Homo sapiens, 72 hours
QUANTITY: GI50

In the examples that follow, each entry is paired with its recorded GI50.
C=CC(=O)Nc1cc(C)ccc1Nc1nc(Nc2ncc(F)c(OC)n2)ncc1C(F)(F)F :: 101 to 500 nM
C=CC(=O)Nc1ccccc1Nc1nc(Nc2cc(C(=O)NOCCO)ccc2C)ncc1Cl :: 101 to 500 nM

Short answer for "C=CC(=O)Nc1cc(C)ccc1Nc1nc(N[C@H]2CCCN(C(=O)CF)C2)ncc1C(F)(F)F" : GI50 was < 100 nM

====

Molecular target: MEK1 activated ERK1 (Homo sapiens (Human), UniProt P27361)
Experiment: Omnia continuous-read kinase assay for potency against MEK1 activated ERK1
Format: biochemical
Details: MEK1 activated ERK1, WT, ATP at KM
Description: Omnia Assay Protocol for Potency Assessment Against MEK1 Activated ERK1: The protocol below describes continuous-read kinase assays to measure potency of compounds against activated ERK1 enzyme. The mechanics of the assay platform are best described by the vendor (Invitrogen, Carlsbad, Calif.) on their website at the following URL: invitrogen.com/site/us/en/home.html. […]
QUANTITY: IC50

N#CNC(=O)c1ccccc1Nc1nc(N[C@H]2CCCN(C(=O)CO)C2)ncc1C(F)(F)F [Compound I-26] :: > 1000 nM
C=CC(=O)N[C@@H]1CCCC[C@H]1Nc1nc(Nc2cc(C(=O)NOC)ccc2C)ncc1Cl [Compound I-190] :: > 1000 nM
C=CC(=O)Nc1ccccc1Nc1nc(Nc2cc(C(N)=O)c(F)cc2C)ncc1Cl [Compound I-214] :: < 100 nM
C=CC(=O)Nc1cc(OC)ccc1Nc1nc(Nc2ccc(-n3ccnc3)cc2C#N)ncc1Cl [Compound I-157] :: > 1000 nM

Continue with the next molecule.
MEK1 activated ERK1 (Homo sapiens (Human), UniProt P27361) data for C=CC(=O)Nc1cc(Cl)ccc1Nc1nc(Nc2cc(Cl)nc(OC)c2)ncc1Cl [Compound I-247] ; its IC50: > 1000 nM
